Source listed as PubChem BioAssay (EPA / NIEHS).

biological target: Peroxisome proliferator-activated receptor gamma (Homo sapiens) (UniProt P37231); test: ATG_PPARg_TRANS: Attagene TRANS-FACTORIAL HepG2 Assay for human Peroxisome Proliferator-activated Receptor-gamma (PPARg) (AID 2283007)
Sequence (P37231 whole entry, looked up): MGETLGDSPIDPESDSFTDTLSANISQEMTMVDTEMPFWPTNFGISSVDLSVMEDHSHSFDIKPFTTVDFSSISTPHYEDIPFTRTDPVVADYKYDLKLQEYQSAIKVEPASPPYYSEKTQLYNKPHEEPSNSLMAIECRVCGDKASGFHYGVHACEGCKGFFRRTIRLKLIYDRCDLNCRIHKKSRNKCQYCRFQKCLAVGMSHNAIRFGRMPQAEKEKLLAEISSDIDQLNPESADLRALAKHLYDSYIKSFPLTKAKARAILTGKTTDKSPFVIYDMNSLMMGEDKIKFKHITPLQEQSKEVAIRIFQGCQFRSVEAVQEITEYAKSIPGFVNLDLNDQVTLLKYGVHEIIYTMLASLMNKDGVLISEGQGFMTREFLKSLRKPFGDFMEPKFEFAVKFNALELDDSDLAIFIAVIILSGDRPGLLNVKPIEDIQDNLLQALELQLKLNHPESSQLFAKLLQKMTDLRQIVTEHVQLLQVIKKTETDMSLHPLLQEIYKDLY
Inconclusive results are not listed. Activity calls are given as the source filed them. Rule for the calls: active = hit-call score of the fitted dose curve at least 0.9, where 1 is the maximum; inconclusive = response in the unintended direction; inactive = score below 0.9.
Just give me one of these, please: 1 = active, 0 = inactive

Each compound tested received a call. Report the one for CCCCCC=O .
0

I'd appreciate the recorded outcome for OCCCC(F)(F)C(F)(F)C(F)(F)F from this test.
0

What did the test return for C(=C(c1ccccc1)c1ccccc1)c1ccccc1 ?
0

# lookup: test call for c1ccc(-c2ccccc2-c2ccccc2)cc1
0

Name the outcome recorded for CCCCCCOC(=O)c1ccccc1O in the assay.
0

Call for entry O=C(O)C(F)(F)C(F)(F)C(F)(F)C(F)(F)C(F)(F)C(F)(F)C(F)(F)C(F)(F)C(F)(F)C(F)(F)C(F)(F)C(F)(F)F :
0

// outcome(item) with item = Nc1ccc(Oc2cccc(Oc3ccc(N)cc3)c2)cc1
1

Please let me know the test result on file for N=C(N)C(F)(F)C(F)(F)C(F)(F)C(F)(F)C(F)(F)C(F)(F)C(F)(F)F .
0

Call for entry FC(F)(F)C(F)(F)C(F)(F)C(F)(F)C(F)(F)C(F)(F)C(F)(F)Br :
0

Give the logged outcome of this assay for the following compound: CN(C)Cc1ccccc1O
0

Tell me the assay call for O=C(O)C(F)(OC(F)(F)C(F)(OC(F)(F)C(F)(OC(F)(F)C(F)(F)C(F)(F)F)C(F)(F)F)C(F)(F)F)C(F)(F)F (stereo unspecified) please.
0

---

test: CCTE_Padilla_ZF_Score.Edema: CCTE's 144 Hour Post-fertilization zebrafish Assay Score for Edema Malformation, Padilla Lab (AID 2284406)
Active and inactive are the calls of the source. The calls were made as follows: active = hit-call score of the fitted dose curve at least 0.9, where 1 is the maximum; inactive = score below 0.9.
Pick from T for active, F for inactive when you respond.

Each molecule tested received a call. Report the one for O=S(=O)(OCC(F)F)C(F)(F)F .
F

I'd appreciate the recorded outcome for O=C(O)C(F)(F)C(F)(F)C(F)(F)C(F)(F)C(F)(F)C(F)(F)C(F)(F)C(F)(F)C(F)(F)C(F)(F)C(F)(F)C(F)(F)C(F)(F)F from this test.
F

Give the logged outcome of this assay for the following molecule: Cc1ccc(S(=O)(=O)OCC(F)(F)C(F)(F)C(F)(F)C(F)(F)C(F)(F)C(F)F)cc1
F

Fill in: this test's call for FC(F)(F)C(F)(F)CNCC(F)(F)C(F)(F)F is ___
F

In this assay, the call recorded for O=C(O)C(F)(F)C(F)(F)C(F)(F)C(F)(F)F was what?
F

Kindly provide the recorded test outcome for the following molecule: C=C(C)C(=O)OCC(F)(F)C(F)(F)C(F)(F)C(F)(F)C(F)(F)C(F)(F)C(F)(F)F
F

So what was the verdict on O=C(O)C(F)(F)C(F)(F)C(F)(F)C(F)(F)C(F)(F)C(F)(F)C(F)(F)C(F)(F)Cl in this test?
T

---

Experiment: CCTE_Padilla_ZF_Score.Tail: CCTE's 144 Hour Post-fertilization zebrafish Assay Score for Tail Malformation, Padilla Lab (AID 2284414)
Description: CCTE_Padilla_ZF_Phenotype_Score is a whole embryo, multiplexed assay using zebrafish ova exposed for 144 hours post fertilization on a 96-well plate.CCTE_Padilla_ZF_Score.Tail is one of one assay component(s) measured or calculated from the CCTE_Padilla_ZF_Phenotype_Score assay. […] This assay endpoint, CCTE_Padilla_ZF_Score.Tail, was analyzed in the positive analysis fitting direction relative to DMSO as the negative control and baseline of activity. […]
The source made the active and inactive calls. Rule for the calls: active = hit-call score of the fitted dose curve at least 0.9, where 1 is the maximum; inactive = score below 0.9.
valueType: AC50

- compoundStructure: "O=S(=O)(OCC(F)F)C(F)(F)F"
  valueType: "AC50"
  result: "inactive"
- compoundStructure: "FC(F)(F)C(F)(F)C(F)(F)N(C(F)(F)C(F)(F)C(F)(F)F)C(F)(F)C(F)(F)C(F)(F)F"
  valueType: "AC50"
  result: "inactive"
- compoundStructure: "FC(F)(Br)C(F)(F)C(F)(F)C(F)(F)C(F)(F)C(F)(F)Br"
  valueType: "AC50"
  result: "inactive"
- compoundStructure: "O=S(=O)(O)C(F)(F)C(F)(F)C(F)(F)C(F)(F)C(F)(F)C(F)(F)C(F)(F)F"
  valueType: "AC50"
  result: "31.2 µM (active)"

Let us move to another entry and its AC50.
Find the recorded AC50 belonging to O=C(CC(=O)C(F)(F)C(F)(F)F)C(F)(F)F and report it.
inactive
